- System: CAKI-1
- assayProcedure: NCI tumour cell line growth inhibition, 48 h
Active and inactive are the calls of the source. Cut-off read from the data, not from the text of the source: active = GI50 up to about 1.1 µM and inactive = higher.
valueKind: GI50

Reference set (5 entries):
Could you share which GI50 value was measured for COc1ccc(/N=N/C(=N/NC(=O)c2cc(Cl)ccc2C(=O)c2ccccc2)c2ccc(N(CCC#N)CCC#N)cc2C)cc1 ?
21.3 µM (inactive)

Endpoint output: GI50 of CC(=O)[C@@]1(c2ccccc2)CC2(CCN(C)CC2)O[C@H]1C . Value?
> 100 µM (inactive)

Which GI50 value belongs to CCN(CC)Cc1ccc(C(=S)Nc2ccc(C)cc2)s1 ?
15 µM (inactive)

Returns the measured GI50 for the input molecule. Input: COC(=O)/C(=C/c1ccc(OC)cc1)C(C(=O)O)=C(C)C
> 100 µM (inactive)

Looking for the measured GI50 of C/C(=N\NS(=O)(=O)c1ccc(C)cc1)c1ccc[n+]([O-])n1 , can you help?
25.1 µM (inactive)

Others:
What does the record list as GI50 for O=C(CCc1ccccc1)On1nnc2ccccc2c1=O ?
30.8 µM (inactive)

For COC(=O)/C1=C/C=C\C[C@@]2(C)CC(c3ccoc3)OC(=O)[C@@H]2CC[C@H]1C (stereo partly drawn) , what is its reported GI50?
> 25 µM (inactive)

The reported numbers originate from ChEMBL document CHEMBL1201862.
